Entries annotated with measured IC50
# SYSTEM: Sterol regulatory element-binding protein 2 (Homo sapiens)
# Sequence (Q12772 whole entry): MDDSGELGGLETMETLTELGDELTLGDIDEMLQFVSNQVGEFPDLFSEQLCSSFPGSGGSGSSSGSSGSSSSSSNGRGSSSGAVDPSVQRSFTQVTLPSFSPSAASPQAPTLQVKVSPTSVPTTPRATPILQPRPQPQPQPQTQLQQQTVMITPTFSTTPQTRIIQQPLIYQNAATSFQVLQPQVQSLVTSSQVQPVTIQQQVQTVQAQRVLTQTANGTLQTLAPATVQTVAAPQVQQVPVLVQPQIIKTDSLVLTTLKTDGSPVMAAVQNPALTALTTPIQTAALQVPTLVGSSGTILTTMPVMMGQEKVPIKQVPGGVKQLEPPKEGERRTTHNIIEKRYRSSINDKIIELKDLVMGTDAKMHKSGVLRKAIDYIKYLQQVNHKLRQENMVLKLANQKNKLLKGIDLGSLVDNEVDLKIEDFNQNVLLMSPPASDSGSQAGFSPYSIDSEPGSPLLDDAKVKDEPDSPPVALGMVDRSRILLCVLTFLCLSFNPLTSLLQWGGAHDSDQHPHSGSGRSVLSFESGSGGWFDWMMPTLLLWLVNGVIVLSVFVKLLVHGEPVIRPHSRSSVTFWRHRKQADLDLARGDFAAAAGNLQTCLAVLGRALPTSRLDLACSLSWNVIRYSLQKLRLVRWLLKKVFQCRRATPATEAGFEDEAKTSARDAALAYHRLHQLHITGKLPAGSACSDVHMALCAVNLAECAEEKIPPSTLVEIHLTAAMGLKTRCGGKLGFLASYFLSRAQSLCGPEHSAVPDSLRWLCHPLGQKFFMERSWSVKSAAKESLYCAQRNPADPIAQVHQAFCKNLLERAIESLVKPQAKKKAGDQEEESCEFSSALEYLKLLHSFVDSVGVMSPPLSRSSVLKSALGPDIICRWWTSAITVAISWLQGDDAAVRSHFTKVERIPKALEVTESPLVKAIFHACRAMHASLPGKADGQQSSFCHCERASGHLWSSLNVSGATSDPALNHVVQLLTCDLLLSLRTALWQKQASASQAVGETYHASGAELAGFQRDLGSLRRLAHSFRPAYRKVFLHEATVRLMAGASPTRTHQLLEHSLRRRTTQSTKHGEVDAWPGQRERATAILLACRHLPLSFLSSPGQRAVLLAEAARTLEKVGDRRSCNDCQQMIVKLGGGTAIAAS

Before answering, review these 2 worked examples.
{"columns": ["COMPOUND_SMILES", "ENDPOINT_NAME", "RECORDED_VALUE"],
 "data": [
  ["C[C@H](CCC(=O)N1CCN(C(=O)c2ccnnc2)CC1)[C@H]1CC[C@H]2[C@@H]3CC=C4C[C@@H](O)CC[C@]4(C)[C@H]3CC[C@]12C", "IC50", "≤ 0.25 µM"],
  ["CCOC(=O)N1CCN(C(=O)CC[C@@H](C)[C@H]2CC[C@H]3[C@@H]4CC=C5C[C@@H](O)CC[C@]5(C)[C@H]4CC[C@]23C)CC1", "IC50", "≤ 0.25 µM"]
]}

Next:
Short answer for `COC(=O)N1CCN(C(=O)CCC[C@H]2CC[C@H]3[C@@H]4CC=C5C[C@@H](O)CC[C@]5(C)[C@H]4CC[C@]23C)CC1` : IC50 was ≤ 0.25 µM
